# Target Desc: PD-1/PD-L1 (Homo sapiens)
# Construct: 60535 (PD-1/NFAT-Reporter-Jurkat); host or cells: CHO cells expressing PD-L1; Jurkat cells expressing PD-1
# Sequence (Q9NZQ7 19-290): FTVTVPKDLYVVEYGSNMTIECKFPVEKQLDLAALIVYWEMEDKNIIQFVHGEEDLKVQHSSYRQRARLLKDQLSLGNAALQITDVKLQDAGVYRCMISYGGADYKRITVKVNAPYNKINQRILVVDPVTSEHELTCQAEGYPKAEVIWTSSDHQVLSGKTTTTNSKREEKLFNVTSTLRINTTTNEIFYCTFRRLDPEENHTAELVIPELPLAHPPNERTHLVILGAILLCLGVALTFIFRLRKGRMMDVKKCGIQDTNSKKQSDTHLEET
# Experimental Details: Detection of biological activity of PD-1/PD-L1 signaling inhibition at the cellular level (NFAT luciferase reporter, PD-1/NFAT-Reporter-Jurkat cells co-cultured with TCR activator/PD-L1-CHO cells)
# Type: cell-based
# Measurement Conditions: PD-1/NFAT-Reporter-Jurkat + TCR activator/PD-L1-CHO co-culture, 6 hours; Atezolizumab as positive control
Output MET for records whose EC50 is lower than 100 nM, NOT MET for records at or above 100 nM.

Query: Please let me know if COc1cc(-c2cccc(-c3cccc4c3cnn4Cc3cc(OC)c(CN(C)C4CC(CC(=O)O)C4)cc3Cl)c2Cl)ccc1CNC[C@@H]1CCC(=O)N1 (stereo partly drawn) shows EC50 below 100 nM.
Response: NOT MET

Query: Does the reported EC50 of the following compound sit strictly below 100 nM? `COc1cc(-c2cccc(-c3cccc4c3cnn4Cc3cc(OC)c(CNC[C@@H]4CCC(=O)N4)cc3Cl)c2Cl)ccc1CNC[C@@H]1CCC(=O)N1`
Response: MET

Query: Strictly below 100 nM in EC50? COc1cc(-c2cccc(-c3cccc4c3cnn4Cc3cc(OC)c(CN(C)CC4CCC(C(=O)O)CC4)cc3[N+](=O)[O-])c2Cl)ccc1CNC[C@@H]1CCC(=O)N1 (stereo partly drawn)
Response: MET

Query: Quick check: does `COc1cc(Cn2ncc3c(-c4cccc(-c5cc(F)c(CNC[C@@H]6CCC(=O)N6)c(OC)c5)c4Cl)cccc32)c(C(F)(F)F)cc1CN(C)[C@H]1CC[C@H](CC(=O)O)CC1` have EC50 under 100 nM?
Response: MET

Query: I'd appreciate it if you could check whether COc1cc(-c2cccc(-c3cccc4c3cnn4Cc3cc(OC)c(CN(C)C4CC5(CC(C(=O)O)C5)C4)cc3Cl)c2Cl)ccc1CNC[C@@H]1CCC(=O)N1 (stereo partly drawn) has EC50 smaller than 100 nM.
Response: MET

Query: State whether 100 nM exceeds EC50 recorded for `COc1cc(Cn2ncc3c(-c4cccc(-c5cc(F)c(CNC[C@@H]6CCC(=O)N6)c(OC)c5)c4Cl)cccc32)c(Cl)cc1CN(C)C12CC(C(=O)O)(C1)C2` .
Response: NOT MET

Query: Consider CCOc1cc(-c2cccc(-c3cccc4c3cnn4Cc3cc(OC)c(CN(C)CC4CCC(C(=O)O)CC4)cc3Cl)c2Cl)ccc1CNC[C@@H]1CCC(=O)N1 (stereo partly drawn) . Does its EC50 lie strictly below 100 nM?
Response: NOT MET

Query: EC50 strictly < 100 nM for this compound? `COc1cc(Cn2ncc3c(-c4cccc(-c5ccc(CNC[C@@H]6CCC(=O)N6)c(Cl)c5)c4Cl)cccc32)c(Cl)cc1CN1CC[C@@H](C(=O)O)C1`
Response: NOT MET

Query: hey, is EC50 for `COc1cc(-c2cccc(-c3cccc4c3cnn4Cc3cc(OCc4cncc(C#N)c4)c(CN[C@@H](CO)C(=O)OC(C)C)cc3Cl)c2Cl)ccc1CNC[C@@H]1CCC(=O)N1` lower than 100 nM or not?
Response: NOT MET

Query: Say whether its EC50 is strictly beneath 100 nM. Entry: COc1cc(-c2cccc(-c3cccc4c3cnn4Cc3cc(OC)c(CN(C)C4CCC(CC(=O)O)CC4)cc3C#N)c2Cl)ccc1CNC[C@@H]1CCC(=O)N1 (stereo partly drawn)
Response: MET

Query: Hi there! Is EC50 for `N#Cc1cncc(COc2cc(Cn3ncc4c(-c5cccc(-c6ccc(CNC[C@@H]7CCC(=O)N7)cc6)c5Cl)cccc43)c(Cl)cc2CN2CCC[C@H]2C(=O)O)c1` below 100 nM, do you know?
Response: NOT MET

Query: Given the entry `N#Cc1cncc(COc2cc(Cn3ncc4c(-c5cccc(-c6ccc(CNC[C@@H]7CCC(=O)N7)cc6)c5Cl)cccc43)c(Cl)cc2CNCCO)c1` , would its reported EC50 be below 100 nM?
Response: MET

Query: Record `N#Cc1cncc(COc2cc(Cn3ncc4c(-c5cccc(-c6ccc(CNC[C@@H]7CCC(=O)N7)cc6)c5C#N)cccc43)c(Cl)cc2CN[C@@H](CO)C(=O)O)c1` : is its EC50 strictly below 100 nM?
Response: NOT MET

Query: Please check: EC50 for `COc1cc(-c2cccc(-c3cccc4c3cnn4Cc3cc(OC)c(CN[C@H]4CC[C@H](C(=O)O)CC4)cc3Cl)c2Cl)ccc1CNC[C@@H]1CCC(=O)N1` , strictly under 100 nM or not?
Response: MET

Query: Hello, I'm reviewing records and need to know if EC50 of `COc1cc(-c2cccc(-c3cccc4c3cnn4Cc3cc(OC)c(CN(C)[C@H]4CC[C@@H](C(=O)O)CC4)cc3Cl)c2Cl)ccc1CNC[C@@H]1CCC(=O)N1` is below 100 nM. Could you check?
Response: MET

Query: Answer whether the compound COc1cc(Cn2ncc3c(-c4cccc(-c5ccc(CNC[C@@H]6CCC(=O)N6)cc5)c4Cl)cccc32)c(F)cc1CN(C)CC1CCC(C(=O)O)CC1 (stereo partly drawn) has EC50 strictly less than 100 nM
Response: NOT MET

Query: Regarding COc1cc(-c2cccc(-c3cccc4c3cnn4Cc3cc(OC)c(CN(C)CC4CCC(CC(=O)O)CC4)cc3Cl)c2Cl)ccc1CNC[C@@H]1CCC(=O)N1 (stereo partly drawn) , kindly confirm whether its EC50 is beneath 100 nM.
Response: MET
